# Test system: THP-1
# measurement_protocol: Cytotoxicity against human THP-1 cells assessed as cell viability at 5 uM measured after 18 hrs by MTT assay relative to control
# Type: cell-based
# condition_set: thp-1, 18 h
Would you mind telling me the reported Activity of each entry?
Numbers only, in %.

Examples with their reported Activity follow.
given_smiles: CCOc1sc(NC(=O)c2ccc(S(=O)(=O)N3CCCCC3)cc2)nc1-c1cc(C)ccc1C
measured_on: THP-1
experimental_result: 104
--
given_smiles: Cc1ccc(-c2csc(NC(=O)c3ccc(S(=O)(=O)N4CCCCC4)cc3)n2)c(C)c1
measured_on: THP-1
experimental_result: 102
--
given_smiles: Cc1ccc(C)c(-c2csc(NC(=O)c3ccc(S(=O)(=O)N4CCCCC4)c(Cl)c3)n2)c1
measured_on: THP-1
experimental_result: 88
--
given_smiles: Cc1ccc2c(c1)-c1nc(NC(=O)c3ccc(S(=O)(=O)N4CCCCC4)cc3)sc1CC2
measured_on: THP-1
experimental_result: 95
--
given_smiles: C#Cc1ccc(C)c(-c2csc(NC(=O)c3ccc(S(=O)(=O)N4CCCCC4)cc3)n2)c1
measured_on: THP-1
experimental_result: 92

Batch request: Activity per item, same order as input.
1. Cc1ccc(C)c(Cc2csc(NC(=O)c3ccc(S(=O)(=O)N4CCCCC4)cc3)n2)c1
2. CCCC1CCN(S(=O)(=O)c2ccc(C(=O)Nc3nc(-c4cc(C)ccc4Br)cs3)cc2)CC1
3. Cc1ccc(C)c(-c2csc(NC(=O)c3ccc(S(=O)(=O)N4CCNCC4)cc3)n2)c1
4. CCOC1CCN(S(=O)(=O)c2ccc(C(=O)Nc3nc(-c4cc(C)ccc4C)cs3)cc2)CC1
5. C#CCN(C(=O)c1ccc(S(=O)(=O)N2CCCCC2)cc1)c1nc(-c2cc(C)ccc2C)cs1

[100, 97, 121, 117, 102]

Batch request: Activity per item, same order as input.
1. CC(=O)N1CCN(S(=O)(=O)c2ccc(C(=O)Nc3nc(-c4cc(C)ccc4C)cs3)cc2)CC1
2. Cc1ccc(C)c(-c2csc(NC(=O)c3ccc(S(=O)(=O)N4CCCCC4)cc3)n2)c1

114
103

====

# measured_on: Nuclear factor NF-kappa-B complex (Homo sapiens) (UniProt Q00653+P19838+Q04206)
# Sequence (P19838 whole entry, looked up): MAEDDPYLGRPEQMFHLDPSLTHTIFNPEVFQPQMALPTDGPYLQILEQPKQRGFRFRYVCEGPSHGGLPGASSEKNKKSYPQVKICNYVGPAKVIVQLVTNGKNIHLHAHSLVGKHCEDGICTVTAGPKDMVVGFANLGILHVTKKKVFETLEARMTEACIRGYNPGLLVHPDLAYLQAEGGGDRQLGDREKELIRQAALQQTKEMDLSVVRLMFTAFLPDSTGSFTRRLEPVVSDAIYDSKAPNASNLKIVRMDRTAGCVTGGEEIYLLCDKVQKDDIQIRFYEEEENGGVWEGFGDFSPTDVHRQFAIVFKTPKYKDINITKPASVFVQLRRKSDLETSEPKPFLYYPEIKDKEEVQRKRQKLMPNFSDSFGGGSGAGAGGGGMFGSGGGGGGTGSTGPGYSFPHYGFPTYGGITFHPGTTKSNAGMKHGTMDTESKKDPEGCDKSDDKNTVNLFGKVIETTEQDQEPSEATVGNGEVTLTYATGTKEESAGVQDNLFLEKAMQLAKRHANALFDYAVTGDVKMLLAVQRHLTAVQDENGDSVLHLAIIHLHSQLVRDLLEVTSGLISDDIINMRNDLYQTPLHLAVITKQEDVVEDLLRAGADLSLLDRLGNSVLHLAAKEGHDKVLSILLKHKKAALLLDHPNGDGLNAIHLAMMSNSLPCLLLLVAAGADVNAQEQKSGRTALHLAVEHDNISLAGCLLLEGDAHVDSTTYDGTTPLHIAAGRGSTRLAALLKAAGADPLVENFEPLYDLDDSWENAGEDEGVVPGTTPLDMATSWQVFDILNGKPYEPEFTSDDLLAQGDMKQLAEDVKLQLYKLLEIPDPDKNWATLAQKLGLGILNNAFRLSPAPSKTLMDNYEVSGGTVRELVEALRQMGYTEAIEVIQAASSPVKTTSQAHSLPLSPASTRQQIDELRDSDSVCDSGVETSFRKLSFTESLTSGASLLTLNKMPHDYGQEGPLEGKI
# Sequence (Q00653 whole entry, looked up): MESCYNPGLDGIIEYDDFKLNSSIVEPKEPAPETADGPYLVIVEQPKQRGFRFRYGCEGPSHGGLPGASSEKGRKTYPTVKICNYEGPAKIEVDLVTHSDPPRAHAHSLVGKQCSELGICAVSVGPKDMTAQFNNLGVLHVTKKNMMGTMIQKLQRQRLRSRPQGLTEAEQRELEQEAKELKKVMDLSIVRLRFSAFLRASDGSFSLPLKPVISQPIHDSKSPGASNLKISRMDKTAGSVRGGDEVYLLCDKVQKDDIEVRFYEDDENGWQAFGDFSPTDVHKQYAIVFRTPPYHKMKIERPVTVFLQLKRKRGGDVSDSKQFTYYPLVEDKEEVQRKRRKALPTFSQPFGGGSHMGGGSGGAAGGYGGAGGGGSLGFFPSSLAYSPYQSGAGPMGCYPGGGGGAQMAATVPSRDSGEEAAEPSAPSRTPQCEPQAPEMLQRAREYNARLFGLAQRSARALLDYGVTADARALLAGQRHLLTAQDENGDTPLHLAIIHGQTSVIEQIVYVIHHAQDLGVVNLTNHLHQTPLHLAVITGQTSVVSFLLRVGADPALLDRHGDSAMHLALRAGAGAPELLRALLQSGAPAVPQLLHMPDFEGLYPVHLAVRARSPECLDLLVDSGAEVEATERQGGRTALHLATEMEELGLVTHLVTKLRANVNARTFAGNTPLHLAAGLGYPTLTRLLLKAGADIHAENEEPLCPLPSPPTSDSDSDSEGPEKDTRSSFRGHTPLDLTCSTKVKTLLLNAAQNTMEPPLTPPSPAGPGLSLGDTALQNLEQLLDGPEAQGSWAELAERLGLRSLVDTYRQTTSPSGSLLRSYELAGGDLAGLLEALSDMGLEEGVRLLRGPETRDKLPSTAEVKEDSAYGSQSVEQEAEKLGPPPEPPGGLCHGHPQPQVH
# Sequence (Q04206 whole entry, looked up): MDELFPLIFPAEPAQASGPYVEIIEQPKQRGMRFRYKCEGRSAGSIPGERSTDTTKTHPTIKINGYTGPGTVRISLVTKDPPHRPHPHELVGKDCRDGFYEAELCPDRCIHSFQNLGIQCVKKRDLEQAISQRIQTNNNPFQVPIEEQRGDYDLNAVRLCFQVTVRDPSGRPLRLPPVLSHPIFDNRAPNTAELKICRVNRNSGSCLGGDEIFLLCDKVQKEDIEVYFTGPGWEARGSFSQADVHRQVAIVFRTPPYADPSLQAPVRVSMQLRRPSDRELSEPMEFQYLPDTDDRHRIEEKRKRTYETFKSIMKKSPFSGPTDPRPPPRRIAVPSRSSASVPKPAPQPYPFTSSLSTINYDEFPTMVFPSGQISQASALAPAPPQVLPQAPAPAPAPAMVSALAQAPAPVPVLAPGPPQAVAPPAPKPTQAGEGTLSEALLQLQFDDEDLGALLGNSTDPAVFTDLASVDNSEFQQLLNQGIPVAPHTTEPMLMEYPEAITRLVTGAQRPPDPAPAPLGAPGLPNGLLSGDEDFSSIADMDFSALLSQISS
# measurement_protocol: Activation of NF-kappaB in human THP1-Blue NF-kappaB cells co-expressing NFkappaB-inducible SEAP assessed as increase in SEAP activity at 5 uM measured after 20 hrs by quanti-blue based colorimetric assay relative to control
# Type: cell-based
# condition_set: filed as activator
observed_property: Activity (%)
Numbers only, in %.

Batch request: Activity per item, same order as input.
1. Cc1ccc(-c2csc(NC(=O)c3ccc(S(=O)(=O)N4CCCCC4)cc3)n2)cc1C
2. CCN(CC)c1sc(NC(=O)c2ccc(S(=O)(=O)N3CCCCC3)cc2)nc1-c1cc(C)ccc1C
3. CCCCc1sc(NC(=O)c2ccc(S(=O)(=O)N3CCCCC3)cc2)nc1-c1cc(C)ccc1C
4. Cc1ccc(C)c(-c2cnc(NC(=O)c3ccc(S(=O)(=O)N4CCCCC4)cc3)s2)c1
5. Cc1ccc2c(c1)-c1nc(NC(=O)c3ccc(S(=O)(=O)N4CCCCC4)cc3)sc1CC2

[98, 99, 109, 99, 114]

Batch request: Activity per item, same order as input.
1. CCCC1CCN(S(=O)(=O)c2ccc(C(=O)Nc3nc(-c4cc(C)ccc4C)cs3)cc2)CC1
2. CCCC#Cc1sc(NC(=O)c2ccc(S(=O)(=O)N3CCCCC3)cc2)nc1-c1cc(C)ccc1C

517
393

====

Would you mind telling me the reported Activity of each entry?
# Test system: THP-1
# measurement_protocol: Cytotoxicity against human THP-1 cells assessed as cell viability at 5 uM measured after 18 hrs by MTT assay relative to control
# Assay type: cell-based
# condition_set: thp-1, 18 h
Numbers only, in %.

Examples with their reported Activity follow.
given_smiles: CCc1sc(NC(=O)c2ccc(S(=O)(=O)N3CCCCC3)cc2)nc1-c1cc(C)ccc1C
Activity [%]: 104
//
given_smiles: Cc1ccc(C)c(-c2csc(NC(=O)c3ccc(S(=O)(=O)N4CCCCC4)c(Br)c3)n2)c1
Activity [%]: 90
//
given_smiles: Cc1ccc(C)c(-c2csc(NS(=O)(=O)c3ccc(C(=O)N4CCCCC4)cc3)n2)c1
Activity [%]: 69

Batch request: Activity per item, same order as input.
1. CC(C)(C)c1csc(NC(=O)c2ccc(S(=O)(=O)N3CCCCC3)cc2)n1
2. Cc1ccc(C)c(-c2nc(NC(=O)c3ccc(S(=O)(=O)N4CCCCC4)cc3)sc2Br)c1
3. CCCc1csc(NC(=O)c2ccc(S(=O)(=O)N3CCCCC3)cc2)n1
4. CCCC#Cc1sc(NC(=O)c2ccc(S(=O)(=O)N3CCC(CCC)CC3)cc2)nc1-c1cc(C)ccc1C
5. Cc1ccccc1-c1csc(NC(=O)c2ccc(S(=O)(=O)N3CCCCC3)cc2)n1

1: 113; 2: 84; 3: 115; 4: 102; 5: 98

Batch request: Activity per item, same order as input.
1. Cc1ccc(C)c(-c2c[nH]c(NC(=O)c3ccc(S(=O)(=O)N4CCCCC4)cc3)n2)c1
2. Cc1ccc(C)c(-c2csc(NC(=O)c3ccc(S(=O)(=O)N4CCCCC4)cn3)n2)c1
3. CCN(c1ccccc1)S(=O)(=O)c1ccc(C(=O)Nc2nc(-c3cc(C)ccc3C)cs2)cc1
4. Cc1cccc(-c2csc(NC(=O)c3ccc(S(=O)(=O)N4CCCCC4)cc3)n2)c1
5. Cc1ccc(C)c(-c2csc(NC(=O)c3ccc(C(=O)N4CCCCC4)cc3)n2)c1

[51, 94, 81, 98, 88]

Batch request: Activity per item, same order as input.
1. Cc1ccc(C)c(-c2cnc(NC(=O)c3ccc(S(=O)(=O)N4CCCCC4)cc3)s2)c1
2. Cc1ccc(C)c(-c2csc(NC(=O)c3ccc(S(=O)(=O)N4CCCCC4)s3)n2)c1
3. Cc1ccc(C)c(-c2cccc(NC(=O)c3ccc(S(=O)(=O)N4CCCCC4)cc3)n2)c1

101
97
94

====

# System: THP-1
# measurement_protocol: Cytotoxicity against human THP-1 cells assessed as cell viability at 5 uM measured after 18 hrs by MTT assay relative to control
# Format: cell-based
# condition_set: thp-1, 18 h
observed_property: Activity (%)
Give bare numbers, in %.

Examples with their reported Activity follow.
given_smiles: CCCC#Cc1sc(NC(=O)c2ccc(S(=O)(=O)N3CCCCC3)cc2)nc1-c1cc(C)ccc1C
measured_on: THP-1
Activity (%): 106

given_smiles: Cc1ccc(C)c(-c2csc(NC(=O)c3ccc(S(=O)(=O)N4CCCCC4)cc3Cl)n2)c1
measured_on: THP-1
Activity (%): 87

given_smiles: Cc1ccc(Br)c(-c2csc(NC(=O)c3ccc(S(=O)(=O)N4CCCCC4)cc3)n2)c1
measured_on: THP-1
Activity (%): 98

given_smiles: Cc1ccc(C)c(-c2csc(NC(=O)c3ccc(SC4CCCCC4)cc3)n2)c1
measured_on: THP-1
Activity (%): 85

given_smiles: Cc1cc(C)cc(-c2csc(NC(=O)c3ccc(S(=O)(=O)N4CCCCC4)cc3)n2)c1
measured_on: THP-1
Activity (%): 91

Batch request: Activity per item, same order as input.
1. Cc1ccc(C)c(-c2ccc(NC(=O)c3ccc(S(=O)(=O)N4CCCCC4)cc3)nc2)c1
2. Cc1ccc(C)c(-c2csc(NC(=O)c3ccc(S(=O)(=O)N4CCN(C(=O)OC(C)(C)C)CC4)cc3)n2)c1
3. Cc1ccc(C)c(-c2nc(NC(=O)c3ccc(S(=O)(=O)N4CCCCC4)cc3)sc2-c2ccco2)c1
4. CCCC1CCN(S(=O)(=O)c2ccc(C(=O)Nc3nc(-c4cc(C)ccc4C)cs3)cc2)CC1
5. Cc1ccc(C)c(-c2csc(NC(=O)c3ccc(S(=O)(=O)C4CCCCC4)cc3)n2)c1

1: 93; 2: 132; 3: 106; 4: 111; 5: 82
